Can you tell me % Live Cells (in vitro), KDY66 cells, antibody plus anti-mouse IgG Fab-saporin for the items I'm about to list?
# testedOn: T1, human DLL3 on cells (h293-hDLL3 cells; endogenous DLL3 on NTX tumor cells) (human, UniProt Q9NYJ7 27-618)
# T1 sequence: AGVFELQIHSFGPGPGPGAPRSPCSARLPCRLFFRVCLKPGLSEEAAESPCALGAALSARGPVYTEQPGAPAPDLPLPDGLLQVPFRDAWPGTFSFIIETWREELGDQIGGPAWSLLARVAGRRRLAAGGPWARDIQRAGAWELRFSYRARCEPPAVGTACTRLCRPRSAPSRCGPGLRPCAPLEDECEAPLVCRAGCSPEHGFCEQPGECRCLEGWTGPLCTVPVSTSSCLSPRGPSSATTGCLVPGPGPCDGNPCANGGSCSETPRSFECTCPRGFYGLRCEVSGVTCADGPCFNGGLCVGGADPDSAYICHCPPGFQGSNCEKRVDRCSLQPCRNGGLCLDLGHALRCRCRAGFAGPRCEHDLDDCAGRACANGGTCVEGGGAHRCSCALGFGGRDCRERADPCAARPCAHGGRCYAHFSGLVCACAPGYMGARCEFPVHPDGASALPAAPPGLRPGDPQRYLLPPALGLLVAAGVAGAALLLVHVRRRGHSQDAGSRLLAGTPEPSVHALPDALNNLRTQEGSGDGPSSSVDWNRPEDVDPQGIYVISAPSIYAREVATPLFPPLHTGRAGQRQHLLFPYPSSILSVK
# assayDetails: cell-based or functional assay
One number for each entry, in %.

Some solved entries appear below for comparison.
binder: SC16.39 (antibody, V domains shown) VH: EVKLEESGGGLVQFGGSMKLSCAASGFTFSDAWMDWVRQSPEKGLEWVAEIRNKANNHATYYPESVKGRFTISRDDSKSRVYLQMNNLRAEDTGIYYCTGYSSFAYWGQGTLVTVSA VL: DIQMTQTTSSLSASLGDRVTISCRASQDVINYLNWYQQKPDGTVKLLIYYTSRLHSGVPSRFSGSGSRTDYSLTISNLEPEDIATYYCQQYSERPYTFGGGTKLEIK
measurementUnits: %
measurement: 98

binder: SC16.15 (antibody, V domains shown) VH: QVQLQQSGAELAKPGASVKMSCKASGYTFTRYWIHWIKQRPGQGLEWIGYINPTTVYTEFNQNFKDKATLTADKSSTTASMQLSSLTSEDSAVYYCARGGSNFFDYWGQGTTLTVSS VL: DIQMTQSPASLAASVGETVAITCRASENIYYNLAWYQQKQGKSPQLLIYTANSLEDGVPSRFSGSGSGTQYSLKINSMQPEDSATYFCKQAYDVPPTFGGGTKLEIK
measurementUnits: %
measurement: 24

Turning now to a further binder:
Any idea what % Live Cells (in vitro), KDY66 cells, antibody plus anti-mouse IgG Fab-saporin was measured for SC16.56 (antibody, V domains shown) VH: QIQLVQSGPELKKPGETVKISCKASGYTFTNYGMNWVKQAPGKGLKWMAWINTYTGEPTYADDFKGRFAFSLETSASTASLQIINLKNEDTATYFCARIGDSSPSDYWGQGTTLTVSS VL: SIVMTQTPKFLLVSAGDRVTITCKASQSVSNDVVWYQQKPGQSPKLLIYYASNRYTGVPDRFAGSGYGTDFSFTISTVQAEDLAVYFCQQDYTSPWTFGGGTKLEIR ?
16
